Target: full-length beta-Catenin (Uniprot ID P35222) (Homo sapiens (Human)) (UniProt P35222)
Experiment: fluorescence polarization competition; full-length beta-catenin, competitor 5FAM-TCF4(10-53) probe
Starred links: 1 amine or outer side, 2 acyl side, 3 side chain; linkers in the order of their positions; H or OH if unused. Positions of bridges follow the written chain, without caps; N, C: chain ends. Non-standard residues stand in square brackets, D forms with d. Primed or numbered codes have the meaning given here. PyrS2″ = (S)-3-amino-1-((pent-4-en-1-yloxy)carbonyl)pyrrolidine-3-carboxylic acid (stapling residue), C=CCCCOC(=O)N1CC[C@@](N[*:1])(C(=O)[*:2])C1; B5(4) = 2,2-bis(4-pentenyl)glycine = 2-amino-2-(pent-4-en-1-yl)hept-6-enoic acid (stitching residue), C=CCCCC(CCCC=C)(N[*:1])C(=O)[*:2]; B5(5) = 2,2-bis(4-pentenyl)glycine, 2-amino-2-(pent-4-en-1-yl)hept-6-enoic acid (stitching residue), C=CCCCC(CCCC=C)(N[*:1])C(=O)[*:2]; B5(3) = 2,2-bis(4-pentenyl)glycine (stitching residue), C=CCCCC(CCCC=C)(N[*:1])C(=O)[*:2]; Phe(3-COOH) = N[C@@H](Cc1cccc(C(=O)O)c1)C(=O)O; Phe(2-Cl) = N[C@@H](Cc1ccccc1Cl)C(=O)O; Bta = N[C@@H](Cc1csc2ccccc12)C(=O)O; αAllylPro = C=CC[C@@]1(C(=O)O)CCCN1; tBuAla = CC(C)(C)C[C@H](N)C(=O)O; 3Thi = N[C@@H](Cc1ccsc1)C(=O)O; S8 = C=CCCCCCC[C@](C)(N)C(=O)O
METRIC_NAME: IC50 (nM)

Solved cases below.
[
  {
    "BINDER": "Ac-[αAllylPro]D[tBuAla][B5(4)]DTAAFL[PyrS2″][Phe(2-Cl)][Bta]S-NH2 (staple 1-4, 4-11) [I-1172]",
    "SCALE_UNIT": "nM",
    "OBSERVED_MEASUREMENT": 45
  },
  {
    "BINDER": "Ac-[αAllylPro]DA[B5(4)]DEAA[3Thi]N[S8]F[Bta]Q-NH2 (staple 1-4, 4-11) [I-449]",
    "SCALE_UNIT": "nM",
    "OBSERVED_MEASUREMENT": 53
  },
  {
    "BINDER": "Ac-[αAllylPro]D[tBuAla][B5(3)]N[Phe(3-COOH)]AAFN[PyrS2″][3Thi][Bta]Q-NH2 (staple 1-4, 4-11) [I-2335]",
    "SCALE_UNIT": "nM",
    "OBSERVED_MEASUREMENT": 7
  }
]

[A] Ac-[αAllylPro]D[tBuAla][B5(5)]DEAAFL[PyrS2″][3Thi][Bta]Q-NH2 (staple 1-4, 4-11) [I-1437]
[B] Ac-[αAllylPro]D[tBuAla][B5(4)]DQAAFL[PyrS2″][3Thi][Bta]Q-NH2 (staple 1-4, 4-11) [I-1440]
Which entry shows the lesser value of IC50 here, A or B ? API: response body contains the label of the selected item. A
